All figures here come from the supplement of paper PMC10307832.

# relative viability per entry
- System: NCI-H520
- assay text: relative viability (nuclei count vs DMSO), 5 days (fraction); higher = more cells survive
- experimental conditions: first compound 0.1 µM

molecule: CCN(CC)CCCCNc1ncc2cc(-c3cc(OC)cc(OC)c3)c(NC(=O)NC(C)(C)C)nc2n1 + CCNC(=O)c1noc(-c2cc(C(C)C)c(O)cc2O)c1-c1ccc(CN2CCOCC2)cc1 [Luminespib] (partner 0.01 µM)
target of assay: NCI-H520
relative viability: 0.229
--
molecule: O=c1cc(N2CCOCC2)oc2c(-c3cccc4c3sc3ccccc34)cccc12 + CC(=O)c1c(C)c2cnc(Nc3ccc(N4CCNCC4)cn3)nc2n(C2CCCC2)c1=O [Palbociclib] (partner 0.5 µM)
target of assay: NCI-H520
relative viability: 0.207
